Biological target: IL-23 (human, p19/p40 heterodimer) (Homo sapiens, UniProt Q9NPF7;P29460 SEQ:20-189,SEQ:23-328)
Sequence (Q9NPF7 20-189, chain 1 of 2): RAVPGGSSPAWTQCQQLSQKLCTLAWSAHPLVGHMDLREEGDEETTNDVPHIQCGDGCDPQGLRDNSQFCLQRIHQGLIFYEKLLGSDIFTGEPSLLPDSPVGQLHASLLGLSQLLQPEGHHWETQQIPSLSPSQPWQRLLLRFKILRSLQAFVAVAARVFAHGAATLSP
Sequence (P29460 23-328, chain 2 of 2): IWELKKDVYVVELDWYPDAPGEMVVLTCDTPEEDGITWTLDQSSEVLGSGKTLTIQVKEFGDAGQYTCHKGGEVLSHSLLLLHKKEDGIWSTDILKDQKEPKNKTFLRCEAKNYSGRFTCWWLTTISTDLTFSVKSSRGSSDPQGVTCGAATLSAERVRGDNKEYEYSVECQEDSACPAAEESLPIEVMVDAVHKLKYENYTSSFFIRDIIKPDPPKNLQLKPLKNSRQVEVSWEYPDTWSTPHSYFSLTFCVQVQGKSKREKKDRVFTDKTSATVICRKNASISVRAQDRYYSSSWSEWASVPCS
Experiment: filter; 1X PBS, tRNA, ssDNA, BSA, 30 min RT
Settings: tags: R&D Systems, carrier free; label: 5'-32P; G4 (predicted)
Parameter Kd: see the listing below.
// return numeric value only (unit: µM, not printed)

Solved entries (count: 2):
{"binder": "ARC627 (mixed, 2'-deoxy A and G, 2'-OMe C and U (dRmY)) RNA: GGGAGAGGAGAGAACGUUCUACAGGCAAGUAAUUGGGGAGUGCGGGCGGGGUGUCGAUCGAUCGAUCAUCGAUG", "measurement": 0.007}
{"binder": "ARC616 (mixed, 2'-deoxy A and G, 2'-OMe C and U (dRmY)) RNA: GGGAGAGGAGAGAACGUUCUACGAUAUAGGCGGUACGGGGGGAGUGGGCUGGGGUCGAUCGAUCGAUCAUCGAUG", "measurement": 0.0131}

// Kd lookup, key: ARC626 (mixed, 2'-deoxy A and G, 2'-OMe C and U (dRmY)) RNA: GGGAGAGGAGAGAACGUUCUACAGGCAAGUAAUUGGGGAGUGCGGGCGGGGGGUCGAUCGAUCGAUCAUCGAUG
0.0101
